Reference source: patent US20240270821A1

Biological target: T1, human GIP receptor (human) (UniProt P48546)
T1 sequence (looked up): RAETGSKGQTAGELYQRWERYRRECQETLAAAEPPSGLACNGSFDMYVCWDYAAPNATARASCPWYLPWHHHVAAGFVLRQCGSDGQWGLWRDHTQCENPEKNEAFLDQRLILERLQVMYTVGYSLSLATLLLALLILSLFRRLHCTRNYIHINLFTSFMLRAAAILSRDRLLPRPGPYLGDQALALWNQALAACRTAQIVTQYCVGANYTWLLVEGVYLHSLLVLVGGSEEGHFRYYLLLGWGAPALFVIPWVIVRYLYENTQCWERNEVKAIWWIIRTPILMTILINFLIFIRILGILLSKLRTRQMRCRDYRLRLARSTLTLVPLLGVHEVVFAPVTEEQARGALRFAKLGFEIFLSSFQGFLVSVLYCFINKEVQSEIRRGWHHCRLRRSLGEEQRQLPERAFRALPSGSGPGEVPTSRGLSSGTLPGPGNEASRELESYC
Test: cell-based or functional assay
Non-standard residues stand in square brackets, D forms with d. No end group written: not given here. αMePhe(2-F) = C[C@](N)(Cc1ccccc1F)C(=O)O; Aib = CC(C)(N)C(=O)O
Readout Type: Relative cAMP EC50 (nM)
Please respond with the number in nM and leave the unit unwritten.

Task: Find the recorded Relative cAMP EC50 belonging to YXQGTFTSDFSXXLDKKAQXAFIEYLLEGGPSSGAPPXGGS (non-natural residues; lipidated Lys AEEA-γGlu-C18 diacid; C-term amide; synthetic construct; SITE 2: note = 2-Aminoisobutyric Acid; SITE 12: note = L-ornithine; SITE 13: note = alpha-methyl-leucine; SITE 17: note = Lysine is chemically modified through conjugation of the epsilon-amino group of the Lysine side chain with (2-[2-(2-Amino-ethoxy)-ethoxy]-acetyl)-(gamma-Glu)) [Example 237] and report it.
Output: 0.228

Task: Then what about the binder YXQGTFTSDFSXXLDXKAQXAFIEYLLEGGPSSGAPPPGGSEE (non-natural residues (Aib, Orn, αMeL); lipidated Lys; C-terminal amide; synthetic construct; SITE 2: note = 2-Aminoisobutyric Acid; SITE 12: note = L-ornithine; SITE 13: note = alpha-methyl-leucine; SITE 16: note = L-ornithine; SITE 17: note = Lysine is chemically modified through conjugation of the epsilon-amino group of the Lysine side chain with (gamma-Glu)2-CO-(CH2)) [Example 1048] ?
Output: 0.356

Task: Then what about the binder YXQGTXTSDXSILLDKKAQXAFIEYLEEGGPSSGEPPPSGTEE (non-natural residues, acylated Lys ((γGlu)2-C18 diacid), C-terminal amide; synthetic construct; SITE 2: note = 2-Aminoisobutyric Acid; SITE 6: note = alpha-methyl-2-fluoro-L-phenylalanine; SITE 10: note = 3-(4-Pyridyl)-L-alanine; SITE 17: note = Lysine is chemically modified through conjugation of the epsilon-amino group of the Lysine side chain with (gamma-Glu)2-CO-(CH2)1) [Example 608] ?
Output: 0.124

Task: Then what about the binder YXQGTXTSDXXIXLDXKAQXEFIEXLIEGGPPSXXPPPXGE (non-natural residues; acylated Lys; C-terminal amide; synthetic construct; SITE 2: note = 2-Aminoisobutyric Acid; SITE 6: note = alpha-methyl-2-fluoro-L-phenylalanine; SITE 10: note = 3-(4-Pyridyl)-L-alanine; SITE 11: note = alpha-methyl-L-serine; SITE 13: note = alpha-methyl-leucine; SITE 16: note = L-ornithine; SITE 17: note = Lysine is chemically mo) [Example 1195] ?
Output: 0.00708

Task: Then what about the binder YXQGTFTSDXSQXLDKKAQXAFIEYLIEAGPSSGAPPPSGSE (synthetic construct; SITE 2: note = 2-Aminoisobutyric Acid; SITE 10: note = 3-(4-Pyridyl)-L-alanine; SITE 13: note = alpha-methyl-leucine; SITE 17: note = Lysine is chemically modified through conjugation of the epsilon-amino group of the Lysine side chain with (gamma-Glu)2-CO-(CH2)16-CO2H; SITE 20:) [Example 1025] ?
Output: 0.18

Task: Then what about the binder YXQGTXTSDXXIXLDXKAQXEFIEXLVEGGPSSGEPPPGGE (not fully specified; Lys acylated AEEA-γGlu-C18 diacid; non-natural residues; C-amide; synthetic construct; SITE 2: note = 2-Aminoisobutyric Acid; SITE 6: note = alpha-methyl-2-fluoro-L-phenylalanine; SITE 10: note = 3-(4-Pyridyl)-L-alanine; SITE 11: note = alpha-methyl-L-serine; SITE 13: note = alpha-methyl-leucine; SITE 16: note = L-ornithine; SITE 17: note = Lysine is chemically mo) [Example 1155] ?
Output: 0.00917

Task: Then what about the binder YXQGTXTSDXXIXLDXKAQXEFIEXLIEGGPSSGAPPPSGSE (Aib, αMe residues, 4Pal, Orn, Me4Pal; acylated K; amide; synthetic construct; SITE 2: note = 2-Aminoisobutyric Acid; SITE 6: note = alpha-methyl-L-phenylalanine; SITE 10: note = 3-(4-Pyridyl)-L-alanine; SITE 11: note = alpha-methyl-L-serine; SITE 13: note = alpha-methyl-leucine; SITE 16: note = L-ornithine; SITE 17: note = Lysine is chemically modified th) [Example 1172] ?
Output: 0.00886

Task: Then what about the binder YXQGTXTSDXXILLDXKAQXXFIEYLIEGGPSSGEPPPSGTE (synthetic construct; SITE 2: note = 2-Aminoisobutyric Acid; SITE 6: note = alpha-methyl-2-fluoro-L-phenylalanine; SITE 10: note = 3-(4-Pyridyl)-L-alanine; SITE 11: note = alpha-methyl-L-serine; SITE 16: note = L-ornithine; SITE 17: note = Lysine is chemically modified through conjugation of the epsi) [Example 531] ?
Output: 0.0694

Task: Then what about the binder YXQGTFTSDFSXXLDKKAQXAFIEYLLEGGPSSGEPPPSEG (synthetic construct; SITE 2: note = 2-Aminoisobutyric Acid; SITE 12: note = L-ornithine; SITE 13: note = alpha-methyl-leucine; SITE 17: note = Lysine is chemically modified through conjugation of the epsilon-amino group of the Lysine side chain with (2-[2-(2-Amino-ethoxy)-ethoxy]-acetyl)-(gamma-Glu)) [Example 59] ?
Output: 0.54

Task: Then what about the binder Y[Aib]QGT[αMePhe(2-F)]TSDYSILLDAQAAKEFIEYLIEGGPSSGEPPPSEG-NH2 (not fully specified (residue 20)) [Example 351] ?
Output: 0.243

Task: Then what about the binder YXQGTXTSDXXIXLDXKAQXEFIEXLIEGGPSSGAPPPSGGGE (non-natural residues (Aib, αMeF, 4Pal, Orn, Me4Pal); lipidated Lys; C-amide; synthetic construct; SITE 2: note = 2-Aminoisobutyric Acid; SITE 6: note = alpha-methyl-L-phenylalanine; SITE 10: note = 3-(4-Pyridyl)-L-alanine; SITE 11: note = alpha-methyl-L-serine; SITE 13: note = alpha-methyl-leucine; SITE 16: note = L-ornithine; SITE 17: note = Lysine is chemically modified th) [Example 1174] ?
Output: 0.00896

Task: Then what about the binder YXQGTFTSDFSKXLDKKAQXAFIEYLLAGGPSSGEPPPSGG (Aib, αMeL; Lys acylated; C-terminal amide; synthetic construct; SITE 2: note = 2-Aminoisobutyric Acid; SITE 13: note = alpha-methyl-leucine; SITE 17: note = Lysine is chemically modified through conjugation of the epsilon-amino group of the Lysine side chain with (2-[2-(2-Amino-ethoxy)-ethoxy]-acetyl)-(gamma-Glu)-CO-(CH2) 18-CO2H; SITE 20: n) [Example 6] ?
Output: 0.232
